target: UniProt P42338; experiment: PI3K isoform selectivity, p110β; settings: mean of at least two experiments
Sequence (P42338 whole entry, species assumed, canonical isoform): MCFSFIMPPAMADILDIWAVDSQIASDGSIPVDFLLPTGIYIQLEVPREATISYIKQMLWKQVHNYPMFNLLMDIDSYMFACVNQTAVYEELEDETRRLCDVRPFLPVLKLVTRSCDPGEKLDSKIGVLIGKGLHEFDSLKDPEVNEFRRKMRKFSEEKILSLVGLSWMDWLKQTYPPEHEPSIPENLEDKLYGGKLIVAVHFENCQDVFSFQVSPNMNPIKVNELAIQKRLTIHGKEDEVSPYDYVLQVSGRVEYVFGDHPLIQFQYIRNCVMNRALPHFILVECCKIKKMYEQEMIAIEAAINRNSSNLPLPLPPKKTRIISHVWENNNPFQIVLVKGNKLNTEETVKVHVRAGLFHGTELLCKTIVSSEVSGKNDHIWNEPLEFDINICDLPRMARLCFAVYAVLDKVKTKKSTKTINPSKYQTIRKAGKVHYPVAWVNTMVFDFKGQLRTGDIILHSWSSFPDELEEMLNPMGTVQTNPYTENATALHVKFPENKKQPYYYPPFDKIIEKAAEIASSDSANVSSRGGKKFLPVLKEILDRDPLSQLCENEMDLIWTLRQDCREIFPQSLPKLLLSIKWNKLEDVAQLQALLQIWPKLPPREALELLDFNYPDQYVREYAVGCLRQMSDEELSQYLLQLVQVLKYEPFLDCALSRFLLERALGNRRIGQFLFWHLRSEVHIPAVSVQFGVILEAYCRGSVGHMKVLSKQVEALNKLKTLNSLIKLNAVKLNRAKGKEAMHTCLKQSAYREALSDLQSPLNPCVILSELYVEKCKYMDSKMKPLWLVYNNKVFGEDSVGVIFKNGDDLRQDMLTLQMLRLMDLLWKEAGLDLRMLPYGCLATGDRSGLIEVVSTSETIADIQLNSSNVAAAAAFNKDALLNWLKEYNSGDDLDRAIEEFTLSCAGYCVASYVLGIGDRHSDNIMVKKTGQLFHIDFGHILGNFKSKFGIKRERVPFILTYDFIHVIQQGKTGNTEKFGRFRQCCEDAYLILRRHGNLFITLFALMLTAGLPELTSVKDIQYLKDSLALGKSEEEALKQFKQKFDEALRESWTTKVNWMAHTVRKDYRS
Sequence (P27986 whole entry partner, species assumed, canonical isoform): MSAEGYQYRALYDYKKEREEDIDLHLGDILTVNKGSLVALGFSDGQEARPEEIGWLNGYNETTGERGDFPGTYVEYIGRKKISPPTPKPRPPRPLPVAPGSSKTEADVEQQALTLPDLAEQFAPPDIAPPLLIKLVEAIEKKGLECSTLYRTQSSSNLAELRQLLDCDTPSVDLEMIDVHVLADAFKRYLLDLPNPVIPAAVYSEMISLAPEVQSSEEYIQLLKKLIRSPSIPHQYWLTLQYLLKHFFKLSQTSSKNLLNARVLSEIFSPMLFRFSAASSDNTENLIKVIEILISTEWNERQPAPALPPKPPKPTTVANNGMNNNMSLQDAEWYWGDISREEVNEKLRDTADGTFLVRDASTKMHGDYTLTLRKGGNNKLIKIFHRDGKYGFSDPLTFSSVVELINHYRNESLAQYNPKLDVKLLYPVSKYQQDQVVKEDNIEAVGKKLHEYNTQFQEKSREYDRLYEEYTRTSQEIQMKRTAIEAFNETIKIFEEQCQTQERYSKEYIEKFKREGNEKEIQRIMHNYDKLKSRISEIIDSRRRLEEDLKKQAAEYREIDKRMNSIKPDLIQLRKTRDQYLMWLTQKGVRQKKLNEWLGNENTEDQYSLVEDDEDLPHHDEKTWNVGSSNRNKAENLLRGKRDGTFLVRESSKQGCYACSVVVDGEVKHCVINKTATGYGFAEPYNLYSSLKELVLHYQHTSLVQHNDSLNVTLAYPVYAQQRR
assay.readout: IC50 (nM)

>>> reported("COc1ccc(-c2ccc3ncnc(N[C@H]4CCCN(C(=O)C5CCC5)C4)c3c2)cn1 [Compound 14c]")
376
>>> reported("COc1ccc(-c2ccc3ncnc(N[C@H]4CCCN(C(=O)C5CC5)C4)c3c2)cn1 [Compound 14b]")
317
>>> reported("COc1ccc(-c2ccc3ncnc(O[C@H]4CCN(C(=O)C5CCOCC5)C4)c3c2)cn1 [Compound 12d]")
592

---

target: PI3Kα (Homo sapiens); assay: PI3K isoform selectivity, p110α; details: mean of at least two experiments
Sequence (P42336 whole entry, species assumed, one chain of several, canonical isoform): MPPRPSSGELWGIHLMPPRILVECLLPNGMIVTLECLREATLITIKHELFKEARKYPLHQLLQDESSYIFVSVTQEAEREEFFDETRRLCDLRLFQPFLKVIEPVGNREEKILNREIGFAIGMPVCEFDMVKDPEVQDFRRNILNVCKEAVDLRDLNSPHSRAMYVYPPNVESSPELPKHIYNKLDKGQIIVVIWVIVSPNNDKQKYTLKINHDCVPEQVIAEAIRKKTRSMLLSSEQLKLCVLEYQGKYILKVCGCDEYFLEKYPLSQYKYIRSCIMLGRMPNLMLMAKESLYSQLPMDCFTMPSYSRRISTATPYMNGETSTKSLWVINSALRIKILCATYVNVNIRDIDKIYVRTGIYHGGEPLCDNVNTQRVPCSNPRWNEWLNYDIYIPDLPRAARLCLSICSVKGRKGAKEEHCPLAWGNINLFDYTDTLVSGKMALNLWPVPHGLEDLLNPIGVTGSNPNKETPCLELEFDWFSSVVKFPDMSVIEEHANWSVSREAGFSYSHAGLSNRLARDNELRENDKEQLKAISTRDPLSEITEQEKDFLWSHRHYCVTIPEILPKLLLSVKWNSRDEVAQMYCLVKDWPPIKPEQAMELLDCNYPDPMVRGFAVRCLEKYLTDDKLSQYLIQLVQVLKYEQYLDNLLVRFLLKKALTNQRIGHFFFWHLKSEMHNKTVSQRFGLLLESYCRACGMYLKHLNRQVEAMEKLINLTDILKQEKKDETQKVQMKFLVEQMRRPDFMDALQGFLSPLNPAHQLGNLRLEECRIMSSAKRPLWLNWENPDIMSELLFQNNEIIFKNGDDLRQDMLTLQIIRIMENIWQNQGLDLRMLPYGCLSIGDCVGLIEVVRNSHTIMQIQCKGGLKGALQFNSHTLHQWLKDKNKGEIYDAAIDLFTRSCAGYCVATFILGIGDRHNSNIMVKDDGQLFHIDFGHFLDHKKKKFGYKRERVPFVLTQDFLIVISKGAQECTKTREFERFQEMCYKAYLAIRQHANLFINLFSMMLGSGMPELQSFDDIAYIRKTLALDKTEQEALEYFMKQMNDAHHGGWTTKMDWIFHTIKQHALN
pIC50: −log10 of the molar value.
pIC50 by entry:
assay.readout: pIC50

>>> reported("COc1ccc(-c2ccc3ncnc(N[C@H]4CCCN(C(=O)C5CCC5)C4)c3c2)cn1 [Compound 14c]")
7.23
>>> reported("COc1ccc(-c2ccc3ncnc(N[C@H]4CCCN(C(=O)C5CC5)C4)c3c2)cn1 [Compound 14b]")
7.44
>>> reported("COc1ccc(-c2ccc3ncnc(O[C@H]4CCN(C(=O)C5CCOCC5)C4)c3c2)cn1 [Compound 12d]")
7.30
